Each recorded value in this set is attributed to ChEMBL document CHEMBL2412952.

biological target: Sodium- and chloride-dependent GABA transporter 1 (Mus musculus) (UniProt P31648); assay: Inhibition of mouse GAT1-mediated [3H]GABA uptake stably transfected in HEK293 cells assessed as residual uptake at 100 uM relative to control; assay type: cell-based
measured attribute: Activity (%)
Write down the numeric answer in % and omit the unit.

# example entries with known answers
compound | result value
Cc1ccc(CNC(=O)[C@@H](C[C@@H](C)O)N2CCC(=C(c3ccccc3)c3ccccc3)CC2)cc1 (relative stereo) | 46
O=C(NCc1ccccc1Cl)C(CCO)N1CCC(=C(c2ccccc2)c2ccccc2)CC1 (centres undefined) | 58
C[C@@H](O)C[C@H](C(=O)NCc1ccccc1Cl)N1CCC(=C(c2ccccc2)c2ccccc2)CC1 (relative stereo) | 95

Attention now turns to another entry.
Query block: For the compound C[C@H](O)C[C@H](C(=O)NCc1ccccc1Cl)N1CCC(=C(c2ccccc2)c2ccccc2)CC1 (relative stereo) , what Activity is on record?
Result block: 47
